# Target System: Tyrosine-protein kinase Lyn (Homo sapiens)
# Sequence (P07948 whole entry): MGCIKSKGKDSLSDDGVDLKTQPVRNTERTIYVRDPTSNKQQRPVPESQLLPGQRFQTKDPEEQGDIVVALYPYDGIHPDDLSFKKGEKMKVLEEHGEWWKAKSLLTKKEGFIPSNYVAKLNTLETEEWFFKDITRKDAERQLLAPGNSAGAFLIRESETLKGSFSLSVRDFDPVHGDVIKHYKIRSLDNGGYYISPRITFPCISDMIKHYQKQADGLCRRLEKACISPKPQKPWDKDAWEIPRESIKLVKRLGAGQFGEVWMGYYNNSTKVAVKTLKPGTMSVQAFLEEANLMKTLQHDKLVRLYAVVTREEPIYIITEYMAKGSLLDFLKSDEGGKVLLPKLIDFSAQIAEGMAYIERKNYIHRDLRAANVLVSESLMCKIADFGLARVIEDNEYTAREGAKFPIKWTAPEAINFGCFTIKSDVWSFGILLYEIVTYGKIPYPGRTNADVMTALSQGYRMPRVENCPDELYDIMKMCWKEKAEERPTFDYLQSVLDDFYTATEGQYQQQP
Entries annotated with measured pIC50
Recall that pIC50 is obtained by taking minus log10 of the concentration measured in molar.

c1nc(N2CCC3(CCCNC3)CC2)c2nc[nH]c2n1 ... 4.85

Here's the next entry for you.
Query the reported pIC50 for Tyrosine-protein kinase Lyn (Homo sapiens); item: c1nc(N2CCC3(CCCCN3)CC2)c2nc[nH]c2n1
3.75

* * *

Entries annotated with measured inhibition
# Target System: Serine/threonine-protein kinase D2 (Homo sapiens)
# Assay Protocol: Inhibition of PKD2 (unknown origin) at 30 uM by microfluidic mobility shift assay relative to control
Write the answer as a number in %, unit excluded.

The cases that follow already have their inhibition on record.
c1nc(N2CCC3(CCCNC3)CC2)c2nc[nH]c2n1 ... 91
O=S(=O)(c1cccc2cnccc12)N1CCCC12CCNCC2 ... 2
CN(C)C(=O)C1CCC2(CCN(c3ncnc4[nH]cnc34)CC2)NC1 (racemic) ... 30

Query the reported inhibition for Serine/threonine-protein kinase D2 (Homo sapiens); item: O=S(=O)(c1cccc2cnccc12)N1CCC2(CC1)CC(O)CCN2 (racemic)
38

Query the reported inhibition for Serine/threonine-protein kinase D2 (Homo sapiens); item: c1nc(N2CCC3(CCCCN3)CC2)c2nc[nH]c2n1
42

Query the reported inhibition for Serine/threonine-protein kinase D2 (Homo sapiens); item: O=S(=O)(c1cccc2cnccc12)N1CCCC2(CCCNC2)C1 (stereo unspecified)
18

Query the reported inhibition for Serine/threonine-protein kinase D2 (Homo sapiens); item: c1ccc(CC2CCNC3(CCN(c4ncnc5[nH]cnc45)CC3)C2)cc1 (racemic)
84

* * *

# Target System: MAP kinase-activated protein kinase 5 (Homo sapiens)
# Sequence (Q8IW41 whole entry): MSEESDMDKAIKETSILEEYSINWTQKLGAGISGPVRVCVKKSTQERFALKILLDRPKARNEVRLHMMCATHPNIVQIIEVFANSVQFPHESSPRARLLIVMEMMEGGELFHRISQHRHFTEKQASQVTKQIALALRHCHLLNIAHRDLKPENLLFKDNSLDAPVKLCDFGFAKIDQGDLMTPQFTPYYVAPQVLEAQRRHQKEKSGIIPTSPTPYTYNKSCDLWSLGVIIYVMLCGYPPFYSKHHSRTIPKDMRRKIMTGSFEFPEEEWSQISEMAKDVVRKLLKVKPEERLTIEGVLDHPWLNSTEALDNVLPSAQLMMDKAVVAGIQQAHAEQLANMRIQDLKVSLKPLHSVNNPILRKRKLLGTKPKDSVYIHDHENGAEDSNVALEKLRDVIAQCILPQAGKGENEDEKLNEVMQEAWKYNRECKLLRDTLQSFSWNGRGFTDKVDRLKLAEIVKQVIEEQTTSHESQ
# Assay Protocol: Inhibition of PRAK (unknown origin) by microfluidic mobility shift assay
Metric Name: IC50 (µM)
Write the answer as a number in µM, unit excluded.

c1nc(N2CCC3(CCCCN3)CC2)c2nc[nH]c2n1 ... 226

Here's the next entry for you.
# lookup: IC50 of c1nc(N2CCC3(CCCNC3)CC2)c2nc[nH]c2n1
41

* * *

# Target System: Mitogen-activated protein kinase 1 (Homo sapiens, UniProt P28482)
# Sequence (P28482 whole entry): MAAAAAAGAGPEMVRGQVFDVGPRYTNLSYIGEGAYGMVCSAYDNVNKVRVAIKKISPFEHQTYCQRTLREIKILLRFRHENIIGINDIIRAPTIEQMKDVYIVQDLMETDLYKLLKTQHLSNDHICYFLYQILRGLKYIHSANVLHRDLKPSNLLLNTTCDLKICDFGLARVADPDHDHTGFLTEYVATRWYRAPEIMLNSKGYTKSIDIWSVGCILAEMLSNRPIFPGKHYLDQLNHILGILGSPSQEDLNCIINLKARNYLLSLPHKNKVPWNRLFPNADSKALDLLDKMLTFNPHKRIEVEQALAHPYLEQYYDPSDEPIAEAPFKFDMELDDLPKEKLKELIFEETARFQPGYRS
# Assay Protocol: Inhibition of ERK2 (unknown origin) at 30 uM by microfluidic mobility shift assay relative to control
Entries annotated with measured inhibition
Write the answer as a number in %, unit excluded.

COC(=O)C1CCC2(CCN(c3ncnc4[nH]cnc34)CC2)NC1 (racemic) ... 19
c1nc(N2CCC3(CCCCN3)CC2)c2nc[nH]c2n1 ... 50

# lookup: inhibition of O=S(=O)(c1cccc2cnccc12)N1CCC2(CCCCN2)CC1
9

# lookup: inhibition of c1nc(N2CCC3(CCCOC3)CC2)c2nc[nH]c2n1
35

# lookup: inhibition of c1nc(N2CCC3(CCCCC3)CC2)c2nc[nH]c2n1
18

* * *

# Target System: Glycogen synthase kinase-3 beta (Homo sapiens, UniProt P49841)
# Sequence (P49841 whole entry, looked up): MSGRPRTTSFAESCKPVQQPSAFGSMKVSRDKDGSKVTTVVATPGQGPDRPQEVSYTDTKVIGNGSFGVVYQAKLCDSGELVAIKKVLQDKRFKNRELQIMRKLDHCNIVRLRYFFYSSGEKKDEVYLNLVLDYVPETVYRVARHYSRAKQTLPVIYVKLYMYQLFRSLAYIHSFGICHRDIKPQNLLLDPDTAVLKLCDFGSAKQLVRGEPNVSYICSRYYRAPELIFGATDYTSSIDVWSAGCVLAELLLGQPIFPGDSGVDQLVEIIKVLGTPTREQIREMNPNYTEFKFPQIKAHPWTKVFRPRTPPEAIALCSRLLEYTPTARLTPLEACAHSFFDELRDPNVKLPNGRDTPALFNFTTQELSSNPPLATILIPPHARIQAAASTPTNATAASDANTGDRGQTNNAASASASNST
# Assay Protocol: Inhibition of GSK3beta (unknown origin) at 30 uM by microfluidic mobility shift assay relative to control
Decision: inhibition >= 20% yields Satisfied, all other cases yield Not satisfied.

c1nc(N2CCC3(CCCCN3)CC2)c2nc[nH]c2n1 ... Satisfied
c1nc(N2CCC3(CCCCO3)CC2)c2nc[nH]c2n1 ... Satisfied

# bool: inhibition of c1nc(N2CCC3(CCCOC3)CC2)c2nc[nH]c2n1 >= 20%
Satisfied

# bool: inhibition of O=C(O)C1CCC2(CCN(c3ncnc4[nH]cnc34)CC2)NC1 (racemic) >= 20%
Satisfied

# bool: inhibition of NC1(Cc2ccccc2)CCN(S(=O)(=O)c2cccc3cnccc23)CC1 >= 20%
Not satisfied

# bool: inhibition of c1nc(N2CCCC3(CCNCC3)C2)c2nc[nH]c2n1 >= 20%
Satisfied

# bool: inhibition of O=S(=O)(c1cccc2cnccc12)N1CCC2(CCCCN2)CC1 >= 20%
Satisfied

# bool: inhibition of O=S(=O)(c1cccc2cnccc12)N1CCC2(CCC(O)CN2)CC1 (racemic) >= 20%
Satisfied

# bool: inhibition of c1nc(N2CCC3(CCNC3)CC2)c2nc[nH]c2n1 >= 20%
Satisfied

# bool: inhibition of OCC1CCC2(CCN(c3ncnc4[nH]cnc34)CC2)NC1 (racemic) >= 20%
Satisfied

# bool: inhibition of O=S(=O)(c1cccc2cnccc12)N1CCC2(CCCNC2)CC1 >= 20%
Not satisfied

Cited source for all entries: ChEMBL document CHEMBL2417369
